All figures here come from PubChem BioAssay (NCI).

Test system: SNB-75 CNS
measurementDescription: NCI-60 one-dose screen, 48 h (100 = growth as untreated, 0 = no growth, -100 = all killed)
assaySetup: 10 µM unless noted
This is part of a sample that, as a whole, favours compounds with a hit. Of some 83,000 tested, about 20% had one in any assay.
propertyMeasured: growth (%)
One number for each entry, in %.

Below: 3 molecules and their reported growth.
COc1ccc2[nH]cc(-c3cc4nc(-c5cn(C)c6ncccc56)cc(N)n4n3)c2c1 : 51.8
CN(C)c1nc(NCCNS(=O)(=O)c2ccc(C(=O)/C=C/c3ccc(C(F)(F)F)cc3)cc2)nc(N2CCOCC2)n1 : 59.5
O=CNc1ccc(-n2cnc3cc(-c4ccc(O)cc4)ccc32)cc1 : 59.3

For every item in the list below, what is its measured growth?
1. COc1cc(CNC(=O)C[C@H](C)CCC=C(C)C)ccc1OCc1cn(-c2ccc(Cl)cc2Cl)nn1
2. c1ccc(CSc2nnc(-c3ccc4nc(-c5ccccc5)[nH]c4c3)o2)cc1
3. O=C(CSc1nnc(-c2ccc(-c3nc4ccc(Cl)cc4[nH]3)cc2)o1)Nc1ccc(Br)cc1
4. CN1CCc2c(sc3ncnc(N/N=C/c4cccc(Cl)c4Cl)c23)C1
5. NCCCCn1c(SCCc2c[nH]c3ccccc23)nnc1-c1ccc2ccccc2n1

7.99
-51.4
46
76.3
0.128

###

System: ACHN renal
measurementDescription: NCI-60 one-dose screen, 48 h
assaySetup: 10 µM unless noted
The panel holds about 83,000 compounds, 20% with a hit somewhere; the sample as a whole holds those more often. Active and inactive are the calls of the source. Rule for the calls: active = growth percent below 10; inactive = the rest.
Would you mind answering with one of these outcomes? true (active), false (inactive)

// known answers, use as guide
N#Cc1c(NC(=O)N2CCOCC2)n(-c2ccc(OC(F)(F)F)cc2)c2cc(F)ccc12 : false
Cc1ccc2nc(NC(=O)Nc3cccc(Cl)c3)sc2c1 : false
Oc1ccc(F)c(Nc2nc(SCCN3CCOCC3)nc3c2cnn3CC(Cl)c2ccc(Br)cc2)c1 (stereo unspecified) : false
COc1ccc(N=Nc2c(N)nn3c(-c4ccc(F)cc4)ccnc23)cc1 : false
Nc1nnc(CS(=O)(=O)c2ccccc2)s1 : false
CC(C)(C)OC(=O)N1C/C(=C\c2ccc(F)cc2)C(=O)/C(=C/c2ccc(F)cc2)C1 : true
COc1ccc(C(=O)NNC(=O)CSc2nc3sc4c(c3c(=O)n2-c2ccc(Cl)cc2)CCCC4)cc1 : false
COC(=O)c1cc(C(C)=O)n2c3ccccc3c3ccccc3c12 : false
O=C1Nc2ccc(F)cc2/C1=C/C(=O)c1cc2ccccc2oc1=O : false
COc1ccccc1NC(=O)c1ccc(NC(=O)CCl)s1 : false

So what was the verdict on O=C(NN1C(=O)/C(=C/C=C/c2ccc([N+](=O)[O-])o2)SC1=S)c1ccncc1 in this test?
true

###

System: NCI-H322M lung
measurementDescription: NCI-60 one-dose screen, 48 h (100 = growth as untreated, 0 = no growth, -100 = all killed)
assaySetup: 10 µM unless noted
The panel holds about 83,000 compounds, 20% with a hit somewhere; the sample as a whole holds those more often.
propertyMeasured: growth (%)
Give bare numbers, in %.

Below: 5 molecules and their reported growth.
Cc1oc(-c2ccccc2)nc1CN[C@@H]1C[C@@H]2C[C@H]([C@H]1C)C2(C)C : 57.9
O=C1Nc2cc(-c3ccc(NS(=O)(=O)c4ccc(F)c(Cl)c4)cc3)ccc2/C1=C/c1ccc[nH]1 : 26.4
COc1sc(/C=N/NC(=O)c2[nH]c3ccc(Br)cc3c2-c2ccccc2)cc1Cl : 13.3
COc1ccc(C(=O)C[n+]2cccc3c4ccccc4ccc32)cc1 : 68.8
COc1ccc(NC(=O)Cn2c(/C=C/c3ccc([N+](=O)[O-])cc3)nc3ccccc3c2=O)cc1 : 70.2

For every item in the list below, what is its measured growth?
1. O=[N+]([O-])c1cccc(-c2nnc3c(/C=C/c4ccc(F)cc4)nc4ccccc4n23)c1
2. Cc1nn(-c2ccccc2)c2ncn(CC(=O)N/N=C/c3ccccc3O)c(=O)c12

101
39.1

For every item in the list below, what is its measured growth?
1. O=C1Nc2cc(-c3ccc(NS(=O)(=O)c4ccc([N+](=O)[O-])cc4)cc3)ccc2/C1=C/c1ccc[nH]1
2. Cc1ccc(/C=C/C(=O)c2ccc(S(=O)(=O)NCCNc3nc(N(C)C)nc(N4CCOCC4)n3)cc2)cc1
3. COc1ccc2nc(NC(=O)c3ccc(N(C)C)cc3)sc2c1
4. COc1ccc(-c2nnc3c(/C=C/c4ccc(Br)cc4)nc4ccccc4n23)cc1
5. O=C(NN1C(=O)/C(=C/C=C/c2ccc([N+](=O)[O-])o2)SC1=S)c1ccc([N+](=O)[O-])cc1
6. Cc1ccc(S(=O)(=O)N(CCn2ccnc2[N+](=O)[O-])CCn2ccnc2[N+](=O)[O-])cc1
7. Nc1nnc(-c2cncc(Br)c2)c(-c2c[nH]c3ccc(Br)cc23)n1
8. N#Cc1ccc(C(=O)NNC(=O)CSc2nc3sc4c(c3c(=O)n2-c2ccc(Cl)cc2)CCCC4)cc1

1: 62.2; 2: 93.7; 3: 64.7; 4: 96.5; 5: -100; 6: 107; 7: 78.2; 8: 51.7

For every item in the list below, what is its measured growth?
1. O=C(Nc1ccc(Br)cc1)Nc1ccc(-c2ccc3c(c2)NC(=O)/C3=C\c2ccc[nH]2)cc1
2. CN1C(=O)C2(C(C#N)=C(c3ccc(Cl)cc3)Nc3c2c(-c2ccccc2)nn3-c2ccccc2)c2ccccc21 (stereo not drawn)

[46.1, 87.5]

Name the reported growth value associated with the molecule Nc1nc(-c2ccccc2)c(N=Nc2ccc(Cl)cc2Cl)s1
4.7

###

Test system: OVCAR-3 ovarian
measurementDescription: NCI-60 one-dose screen, 48 h (100 = growth as untreated, 0 = no growth, -100 = all killed)
assaySetup: 10 µM unless noted
About 83,000 compounds went through this panel and 20% of them were active in at least one assay; those are over-represented in the sample as a whole.
propertyMeasured: growth (%)
Numbers only, in %.

For every item in the list below, what is its measured growth?
1. COc1ccc2[nH]cc(-c3cc4nc(-c5cn(C)c6ncccc56)cc(N)n4n3)c2c1
2. COc1cc(C2C(C(=O)OCc3ccccc3)=C(C)Nc3nc4ccccc4n32)cc(OC)c1OC (stereo not drawn)
3. Nc1nn2c(-c3cc4ccccc4oc3=O)ccnc2c1N=Nc1ccccc1

1: -57.6; 2: 12.1; 3: 82.7

###

Tested on: OVCAR-8 ovarian
measurementDescription: NCI-60 one-dose screen, 48 h (100 = growth as untreated, 0 = no growth, -100 = all killed)
assaySetup: 10 µM unless noted
The panel holds about 83,000 compounds, 20% with a hit somewhere; the sample as a whole holds those more often.
Classification field. Basis: growth. Definitions: lower bin = under 30%, middle bin = from 30% up to 90%, upper bin = 90% and over

// known answers, use as guide
Cc1nn(-c2ccccc2)c2nc(C)n(CC(=O)N/N=C/c3cccc([N+](=O)[O-])c3)c(=O)c12 : upper bin
CCCSc1nnc(-c2c(C)nc3sccn23)o1 : upper bin
O=C(c1cc2cc(OCCCN3CCC3)ccc2[nH]1)N1C[C@@H](CCl)c2c1cc(OCc1ccccc1)c1ccccc21 : lower bin

Category of Cn1cc(-c2cc(N)n3nc(-c4c[nH]c5ccccc45)cc3n2)c2cc(F)ccc21 :
lower bin

Category of O=C(CSc1nc2ccccc2c(=O)[nH]1)NNC(=O)c1ccccc1Cl :
upper bin

###

Tested on: MOLT-4 leukemia
measurementDescription: NCI-60 one-dose screen, 48 h (100 = growth as untreated, 0 = no growth, -100 = all killed)
assaySetup: 10 µM unless noted
This is part of a sample that, as a whole, favours compounds with a hit. Of some 83,000 tested, about 20% had one in any assay.
propertyMeasured: growth (%)
Give bare numbers, in %.

Below: 2 compounds and their reported growth.
COc1ccccc1NC(=O)N/N=C/c1c[nH]c2ccccc12 : 7.13
Nc1ccc(-c2ccc3ncnc(N4CCc5cc(F)c(Cl)cc54)c3c2)cn1 : 1.81

For every item in the list below, what is its measured growth?
1. Cc1ccc(C(=O)C[n+]2cccc3c4ccccc4ccc32)cc1
2. Cn1cc(-c2cc3nc(-c4cn(C)c5ncc(Br)cc45)cc(N)n3n2)c2cc(F)ccc21
3. Nc1nnc(CS(=O)(=O)c2ccccc2)s1
4. O=C1Nc2cc(-c3ccc(NS(=O)(=O)c4ccc(-c5ccccc5)cc4)cc3)ccc2/C1=C/c1ccc[nH]1
5. OCCn1cc(-c2nc3ccc4[nH]ncc4c3c3c2CCCC3)cn1
6. Clc1ccc(CNc2nc(SCCN3CCOCC3)nc3c2cnn3CC(Cl)c2ccc(Br)cc2)cc1 (centres undefined)
7. CCCCCCCOc1ccc(S(=O)(=O)Nc2ccc(C)c(F)c2C(=O)O)cc1

14.4
17.4
103
27.6
31.2
-22.7
98.3

For every item in the list below, what is its measured growth?
1. N#CC1=C(c2cccs2)Nc2c(c(-c3ccccc3)nn2-c2ccccc2)C12C(=O)Nc1ccc(Cl)cc12 (centres undefined)
2. COc1ccc(NC(=O)Cn2c(/C=C/c3cccc(OC)c3)nc3ccccc3c2=O)cc1

1. 19.3
2. 97.4

For every item in the list below, what is its measured growth?
1. Cc1nc(N)ncc1-c1ccc2ncnc(N3CCc4cc(F)c(Cl)cc43)c2c1
2. CN(C)c1nc(NCCNS(=O)(=O)c2ccc(C(=O)/C=C/c3ccc(Cl)cc3)cc2)nc(N2CCOCC2)n1
3. O=C(c1ccc(O)cc1)C1[C@H](c2ccc(Cl)cc2)[C@@H](c2ccccc2)NC12C(=O)Nc1ccccc12 (some centres undefined)
4. O=C(O)CC1S/C(=N/N=C/c2nc3ccccc3s2)NC1=O (centres undefined)
5. CC(C)C[C@H](NC(=O)CNC(=O)C[C@H]1O[C@@H]2OC3(C)CC[C@H]4[C@H](C)CC[C@@H]([C@H]1C)[C@@]24O3)B(O)O
6. Nc1nnc(-c2cncc(Br)c2)c(-c2c[nH]c3ccc(Br)cc23)n1
7. O=C(CSc1nc2ccccc2c(=O)[nH]1)NNC(=O)c1ccccc1Cl
8. CCOc1ccccc1NC(=O)N/C(N)=N/c1nc2ccccc2s1

11.1
3.71
-34.3
95.2
7.31
33
111
7.53

For every item in the list below, what is its measured growth?
1. N#CC1=C(c2ccco2)Nc2c(c(-c3ccccc3)nn2-c2ccccc2)C12C(=O)Nc1ccc(Cl)cc12 (centres undefined)
2. CCCN(CCC)S(=O)(=O)c1ccc(C(=O)O)cc1.CCCN(CCC)S(=O)(=O)c1ccc(C(=O)O)cc1.[Cl][Pt+2][Cl].[NH2-].[NH2-]
3. Nc1cc2ccccc2c(=O)n1NC(=O)c1ccc(Br)cc1
4. O=c1[nH]c2ccccc2cc1CSc1ccccc1Nc1nccc(-c2ccc3c(c2)OCO3)n1
5. O=C1Nc2cc(-c3ccc(NS(=O)(=O)c4ccc([N+](=O)[O-])cc4)cc3)ccc2/C1=C/c1ccc[nH]1

1: 34.8; 2: -2.08; 3: 90.8; 4: 93.6; 5: 15.8
